Tested on: EKVX NSCLC
methodNotes: NCI tumour cell line growth inhibition, 48 h; in the data active = GI50 below about 0.43 µM; inactive = the rest
Would you mind answering with one of these outcomes? T (active), F (inactive)

Here are 8 compounds together with their reported answers.
>  <compound>
O=C(COc1cccc(/C=C2/Oc3ccccc3C2=O)c1)Nc1nccs1

>  <groupLabel>
F

$$$$
>  <compound>
Cc1ccc(NCCN2CCCCC2)c2c(=O)c3ccccc3sc12

>  <groupLabel>
F

$$$$
>  <compound>
CN1CCN(c2ccc(N3Cc4ccccc4OC4=C3C(=O)c3c(O)ccc(O)c3C4=O)cn2)CC1

>  <groupLabel>
T

$$$$
>  <compound>
NCCCCCCn1c2c(c3ccccc3c1=O)C(=O)c1ccccc1-2

>  <groupLabel>
F

$$$$
>  <compound>
CC(C)OP(=O)(OC(C)C)C([CH2][Sn]([CH3])([CH3])[Cl])P(=O)(OC(C)C)OC(C)C

>  <groupLabel>
F

$$$$
>  <compound>
[Co+2].[O-]c1ccccc1C=NCc1ccccc1.[O-]c1ccccc1C=NCc1ccccc1

>  <groupLabel>
F

$$$$
>  <compound>
CCN(CC)CCOc1nc2c3ccc(Cl)cc3nn2c2ccccc12

>  <groupLabel>
F

$$$$
>  <compound>
CN1C(=O)N(C)C2C1NN=c1s/c(=C\c3ccccc3F)c(=O)n12 (centres undefined)

>  <groupLabel>
T

$$$$

For the next question, use this compound.
Request: Answer briefly: the call reported for O=C(Nc1ccc(Cl)cc1)Nc1ccc(Oc2nncc3ccccc23)cc1 in this assay.
Response: F
